log10 vapour pressure (mmHg) vs -0.9: at or above is y, below is n.

# molecule, discrete.label
rows = [
    ("Fc1cc2c(cc1F)Oc1cc(Cl)c(Cl)cc1O2", "n"),
    ("CCO[Si](C)(C)OCC", "y"),
    ("CCOc1ccc(C(COCc2cccc(Oc3ccc(Cl)cc3)c2)C(F)(F)F)cc1 (stereo not given)", "n"),
    ("COc1ccc(C(=CC(=O)N2CCOCC2)c2ccc(Cl)cc2)cc1OC", "n"),
    ("O=C(Cl)c1cccc(Cl)c1", "y"),
]

---

Reported log10 Koc (L/kg) values follow for various molecules
property.measured: log10 Koc (L/kg)

# smi, experimental.value
data = [
    ("CCNc1nc(Cl)nc(N(CC)CC)n1", 2.76),
    ("CCCCCO", 0.7),
    ("COc1cc(Cl)c(Cl)c(Cl)c1O", 2.8),
    ("CCCCN(C)C(=O)Nc1ccc(Cl)c(Cl)c1", 3.4),
]
